- Tested on: U373MG (Uppsala)
- protocol-details: GBM cell line viability IC50, U373
- Assay type: cell-based
- condition-notes: Homo sapiens, U373 MG
Entries annotated with measured pIC50
Here pIC50 is given on a logarithmic scale as minus log10 of the concentration in mol/L.

INSERT INTO results (structure_notation, endpoint_name, reported) VALUES
  ('Cn1c(CCCC(=O)O)nc2cc(N(CCCl)CCCl)ccc21', 'pIC50', 4.46);

Here's the next entry for you.
pIC50 for U373MG (Uppsala) with input `Cn1c(CCCCCCC(=O)NO)nc2cc(N(CCCl)CCCl)ccc21` equals 5.65

====

- protocol-details: CNS pharmacokinetics by blood and brain-ventricle microdialysis, CE-UV
- Format: in vivo, Sprague-Dawley Rats
- condition-notes: Sprague-Dawley, blood (jugular vein microdialysate); Blood; rat, 40 mg/kg iv
endpoint-name: Tmax (min)
Reply numerically in min, unit not repeated.

Looking up `Cn1c(CCCCCCC(=O)NO)nc2cc(N(CCCl)CCCl)ccc21` , I see its Tmax listed as 2.33

====

- protocol-details: CNS pharmacokinetics by blood and brain-ventricle microdialysis, CE-UV
- Assay type: in vivo, Sprague-Dawley Rats
- condition-notes: Sprague-Dawley, rat, blood (jugular vein microdialysate), iv, 40 mg/kg, Blood, 40 mg/kg iv
endpoint-name: half-life

Looking up `Cn1c(CCCCCCC(=O)NO)nc2cc(N(CCCl)CCCl)ccc21` , I see its half-life listed as ~6 min

====

- System: A172
- protocol-details: GBM cell line viability IC50, A172
- Assay type: cell-based
- condition-notes: Homo sapiens, A 172; A172, MGMT neg.; no unit in Table 2; read-out: IC50
endpoint-name: IC50

Looking up Cn1nnc2c(C(N)=O)ncn2c1=O [temozolomide] , I see its IC50 listed as ~100 µM
